Would you kindly list AUC(0-t) for each of these compounds?
experiment: Rat pharmacokinetic detection; assay type: in vivo; details: plasma, male SD rats, oral gavage 15 mg/kg
Where a SMILES comes first, the peptide text is derived from it. [ ]: non-standard residue; d: D form. pGlu = O=C1CC[C@@H](C(=O)O)N1
Supply the numeric figure in ng·h/mL, leaving out any unit text.

## Task Reported AUC(0-t), compound [2H]C([2H])([2H])C(=O)N1CC[C@@H]1C(=O)N[C@H](c1ncco1)C(C)C : ____
## Result 24300

## Task Next compound up: C[C@H](NC(=O)[C@@H]1CCCN1)C(=O)O [D5-PA, reference compound] (H-Pro-Ala-OH)
## Result 11.5

## Task Also CC(C)C[C@H](NC(=O)[C@@H]1CCC(=O)N1)C(=O)O [D4-pEL, reference compound] ([pGlu]-Leu-OH) ?
## Result 98.6

These data points were gathered from patent EP4818189A1.
